settings: 240 min, 5 μM
Under this convention, label 1 denotes Mouse Plasma Compound 001 (%) strictly below 60% and label 0 denotes Mouse Plasma Compound 001 (%) at or above 60%.

>>> group_label("COc1ccc([C@@]23CCC(OC(=O)c4cccc(C(C)(C)C)c4)=C[C@@H]2N(C)CC3)cc1OC")
"label 1"
>>> group_label("COc1ccc([C@@]23CCC(OC(=O)c4ccc(F)cc4)=C[C@@H]2N(C)CC3)cc1OC")
"label 1"
>>> group_label("C=C(C)C(=O)OC1=C[C@@H]2N(C)CC[C@]2(c2ccc(OC)c(OC)c2)CC1")
"label 1"
>>> group_label("COc1ccc([C@@]23CCC(OC(=O)c4ccccc4C)=C[C@@H]2N(C)CC3)cc1OC")
"label 0"

Next molecule, please.
Quick check: does C/C=C(\C)C(=O)OC1=C[C@@H]2N(C)CC[C@]2(c2ccc(OC)c(OC)c2)CC1 have Mouse Plasma Compound 001 (%) under 60%? label 1
